tested on: MM.1S; assay: Cell viability assay (CellTiter-Meiluncell Luminescent), tumor cell proliferation, MM.1S; details: Homo sapiens, MM1.S, 96 h, read-out: inhibitory activity (IC50, nM) against tumor cells proliferation, MM.1S
# Lookup of reported IC50 keyed by entry

>  <COMPOUND>
Cn1cc(C2=CCN(Cc3ccc4c(c3)CN(N3CCC(=O)NC3=O)C4=O)CC2)c2ccc(F)cc21 [GT-05167]

>  <IC50>
10 to 50 nM

$$$$
>  <COMPOUND>
O=C1CCN(N2Cc3cc(CN4CCN(c5cccc(Cl)c5Cl)CC4)ccc3C2=O)C(=O)N1 [GT-04853]

>  <IC50>
100 to 300 nM

$$$$
>  <COMPOUND>
CC1(C)CCC(CN2CCN(Cc3ccc4c(c3)CN(N3CCC(=O)NC3=O)C4=O)CC2)=C(c2ccc(Cl)cc2)C1 [GT-04944]

>  <IC50>
500 to 1000 nM

$$$$
>  <COMPOUND>
Cc1ccsc1C1=CCN(Cc2ccc3c(c2)CN(N2CCC(=O)NC2=O)C3=O)CC1 [GT-04870]

>  <IC50>
50 to 100 nM

$$$$
>  <COMPOUND>
O=C1CCN(N2Cc3cc(CN4CCN(C(c5cccc(F)c5)c5cccc(F)c5)CC4)ccc3C2=O)C(=O)N1 [GT-07293]

>  <IC50>
100 to 300 nM

$$$$
>  <COMPOUND>
O=C1CCN(N2Cc3cc(CN4CC=C(c5ccoc5)CC4)ccc3C2=O)C(=O)N1 [GT-04875]

>  <IC50>
300 to 500 nM

$$$$
>  <COMPOUND>
O=C1CCN(N2Cc3cc(CN4CCC(c5c[nH]c6cc(F)ccc56)CC4)ccc3C2=O)C(=O)N1 [GT-05164]

>  <IC50>
100 to 300 nM

$$$$
>  <COMPOUND>
O=C1CCN(N2Cc3cc(CN4CCC(c5cccs5)CC4)ccc3C2=O)C(=O)N1 [GT-07511]

>  <IC50>
500 to 1000 nM

$$$$
>  <COMPOUND>
O=C1CCN(N2Cc3cc(CN4CC=C(c5c[nH]c6ncccc56)CC4)ccc3C2=O)C(=O)N1 [GT-07577]

>  <IC50>
300 to 500 nM

$$$$
>  <COMPOUND>
O=C1CCN(N2Cc3cc(CN4CC=C(c5cccc6c(F)cccc56)CC4)ccc3C2=O)C(=O)N1 [GT-07590]

>  <IC50>
10 to 50 nM

$$$$
>  <COMPOUND>
O=C1CCN(N2Cc3cc(CN4CC=C(c5ccnc6cc(F)ccc56)CC4)ccc3C2=O)C(=O)N1 [GT-05166]

>  <IC50>
100 to 300 nM

$$$$
>  <COMPOUND>
O=C1CCN(N2Cc3cc(CN4CC=C(c5ccco5)CC4)ccc3C2=O)C(=O)N1 [GT-04874]

>  <IC50>
100 to 300 nM

$$$$
>  <COMPOUND>
Cn1cc(C2CCN(Cc3ccc4c(c3)CN(N3CCC(=O)NC3=O)C4=O)CC2)c2ccc(F)cc21 [GT-07575]

>  <IC50>
100 to 300 nM

$$$$
>  <COMPOUND>
O=C1CCN(N2Cc3cc(CN4CCN(c5cccc6sccc56)CC4)ccc3C2=O)C(=O)N1 [GT-04866]

>  <IC50>
100 to 300 nM

$$$$
>  <COMPOUND>
O=C1CCN(N2Cc3cc(CN4CC=C(c5cncc(Cl)c5Cl)CC4)ccc3C2=O)C(=O)N1 [GT-06393]

>  <IC50>
500 to 1000 nM

$$$$
>  <COMPOUND>
O=C1CCN(N2Cc3cc(CN4CC=C(c5cccs5)CC4)ccc3C2=O)C(=O)N1 [GT-04868]

>  <IC50>
100 to 300 nM

$$$$
